System: A549
Assay: NCI tumour cell line growth inhibition, 48 h
Calls of active or inactive are those of the source. Rule as the data show it: active = GI50 up to about 1.1 µM and inactive = higher.
Possible outcomes: active, inactive

{"columns": ["MOLECULE", "CLASS_LABEL"],
 "data": [
  ["O=c1[nH]c(=S)[nH]c2c(C3OC(CO)C(O)C3O)nsc12 (stereo not given)", "inactive"],
  ["CCCCCCCCCCCC(=O)OCC1OC(n2cc(F)c(=O)[nH]c2=O)C(N)C(OC(=O)CCCCCCCCCCC)C1O (stereo not given)", "inactive"],
  ["COC(=O)c1ccccc1/C=C1\\Cc2c(ccc3c2CCC3)C1=O", "inactive"],
  ["O=C1c2ccccc2C(=O)c2c1oc(=O)c1ccccc21", "inactive"],
  ["Cn1c2ccccc2c2c(=O)[nH]c(=O)[nH]c21", "inactive"],
  ["COC(=O)CN1c2nc(C#N)c(C#N)nc2N(CC(=O)OC)c2nc(C#N)c(C#N)nc21", "inactive"],
  ["O=C(CC1=Nc2nnc(-c3nnc4n3C(=O)C(CC(=O)c3cccnc3)=N4)n2C1=O)c1cccnc1", "inactive"],
  ["CN(Cc1cnc2nc(N)nc(N)c2n1)c1ccc(C(=O)NC(CCS(=O)(=O)O)C(=O)O)cc1 (stereo not given)", "active"],
  ["O=C1/C(=C\\c2cccc(Oc3ccccc3)c2)S(=O)(=O)C(c2ccccc2)N1c1cccc(Cl)c1 (stereo not given)", "inactive"],
  ["CC(C)C(=O)CC(Sc1ccc(N)cc1)c1ccccc1 (stereo not given)", "inactive"],
  ["COC(=O)C(Cc1ccccc1)NC(=O)C(CCC(=O)OCc1ccccc1)NC(=O)OC(C)(C)C (stereo not given)", "inactive"],
  ["N=C(N)NS(=O)(=O)c1ccc(NC(=O)c2ccc3nc4ccccc4c(O)c3c2)cc1", "inactive"],
  ["Nc1ccn(C2OC(COP(=O)(O)Oc3ccccc3)C(O)C2O)c(=O)n1 (stereo not given)", "inactive"],
  ["CC12CCC(C(=O)n3c1nc1ccccc13)C(C)(C)O2 (stereo not given)", "inactive"],
  ["Clc1cc2nc(C3CCCCO3)[nH]c2cc1Cl (stereo not given)", "inactive"],
  ["COC1=CC(=O)c2c(c(O)c3oc4cc(OC)cc(C)c4c(=O)c3c2O)C1=O", "inactive"],
  ["COc1cc(O)c2c(=O)c(OC)c(-c3ccc4c(c3)OCO4)oc2c1", "inactive"],
  ["CC(=O)OC1OC2C(NC(=O)OC(C)(C)C)C1CC2(OCc1ccccc1)OCc1ccccc1 (stereo not given)", "inactive"],
  ["COc1ccc(C2=Nn3c(nnc(Cc4ccc(Cl)cc4)c3=O)SC2)cc1", "inactive"],
  ["O=C(O)C1=CN(c2ccncc2)C(c2ccco2)=CC1c1ccccc1[N+](=O)[O-] (stereo not given)", "inactive"]
]}

* * *

Tested on: HCT-116
Assay: NCI tumour cell line growth inhibition, 48 h
Active and inactive are the calls of the source. No stated cut-off is given here; in the data, active = GI50 up to about 1.1 µM and inactive = higher.

{"columns": ["COMPOUND", "GI50"],
 "data": [
  ["CC1(C)OC(=O)C(=C2CCC(C(=O)Nc3cccc(C(F)(F)F)c3)N2)C(=O)O1 (stereo not given)", "> 100 µM (inactive)"],
  ["NC1=NC2(COC(c3ccccc3)(c3ccccc3)c3ccccc3)OC(COC(c3ccccc3)(c3ccccc3)c3ccccc3)C(O)C2O1 (stereo not given)", "38.3 µM (inactive)"],
  ["N=C(N)N/N=C/c1c(Cl)nc2n1CCS2", "16.6 µM (inactive)"],
  ["CCCC/C=C/C=C/C=C/CCCCCCCC(=O)OCC(COC(=O)CCCCCCC/C=C/C1C=CC(CCCC)C(C(=O)O)C1C(=O)O)OC(=O)CCCCCCC/C=C/C=C/C=C/CCCC.OCCNCO (stereo not given)", "17 µM (inactive)"],
  ["CCOc1ccc(/N=N/S(=O)(=O)O)cc1", "> 100 µM (inactive)"],
  ["Ic1ccc2c(c1)N(c1ccccc1)c1cc([N-]c3ccc4nc5ccc(I)cc5[n+](-c5ccccc5)c4c3)ccc1N2", "35 µM (inactive)"],
  ["CC(=O)c1nc(C#N)c(N)o1", "> 100 µM (inactive)"],
  ["Cc1ccsc1C(=S)Nc1ccc(Cl)c(C(=O)OC(C(C)C)C(C)C)c1", "12.1 µM (inactive)"],
  ["CC(=O)NC1C(OCC(=O)NC(C)C(=O)NC(CCC(=O)NCCCCCNc2ccc([N+](=O)[O-])c3[nH]c4ccccc4c(=O)c23)C(N)=O)C(O)C(CO)OC1(C)OCc1ccccc1 (stereo not given)", "19.4 µM (inactive)"],
  ["CCC(=O)Nc1nc2c(ncn2C2OC(COC(=O)CC)C(OC(=O)CC)C2OC(=O)CC)c(=O)[nH]1 (stereo not given)", "> 100 µM (inactive)"],
  ["CC1CC2C(=O)N(c3ccccc3)C(=O)C2c2c1c1ccccc1n2Cc1ccccc1 (stereo not given)", "29.3 µM (inactive)"],
  ["FC(F)(F)c1ccc(C2SCc3nc4ccccc4n32)cc1 (stereo not given)", "27.9 µM (inactive)"],
  ["COc1ccc(/C=C2\\c3cc(OC)c(OC)cc3CCN2C(=O)c2ccccc2)cc1OC", "35.5 µM (inactive)"],
  ["C[C@@]12CCC(=O)c3coc(c31)C(=O)c1cc3c(cc12)C(=O)C=CC3=O", "15.4 µM (inactive)"],
  ["Brc1ccc2[nH]cc(-c3csc(-c4c[nH]c5ccc(Br)cc45)n3)c2c1", "1.68 µM (inactive)"],
  ["CC1(C)O[C@H]2OC3CCC(=O)CC3(O)[C@H]2O1 (stereo not given in full)", "> 100 µM (inactive)"],
  ["O=C1C(CN2CCCCC2)CCC1CN1CCCCC1 (stereo not given)", "24.5 µM (inactive)"],
  ["CC(C)N(O)C(=N)c1ccccc1", "> 100 µM (inactive)"],
  ["COc1cc(/C=C/C(=O)O)ccc1OS(=O)(=O)O", "> 100 µM (inactive)"],
  ["CC(C)C1C(=O)N2CCCC2C2(O)OC(NC(=O)C3C=C4c5cccc6[nH]cc(c56)CC4N(C)C3)(C(C)C)C(=O)N12 (stereo not given)", "17.9 µM (inactive)"]
]}

* * *

Tested on: T47D
Experiment: NCI tumour cell line growth inhibition, 48 h
Active and inactive are the calls of the source. Cut-off read from the data, not from the text of the source: active = GI50 up to about 1.1 µM and inactive = higher.
Some compounds, each annotated with its measured GI50.
OBSERVABLE: GI50

{"columns": ["COMPOUND", "MEASURED"],
 "data": [
  ["COC(=O)C1(C)CCC(c2ccc(C)cc2)=C(CC(=O)O)C1 (configuration not stated)", "> 100 µM (inactive)"],
  ["COc1ccc(/C=C2\\c3cc(OC)c(OC)cc3CCN2C(=O)c2ccccc2)cc1OC", "33.3 µM (inactive)"],
  ["CCCCSC1=N/C(=C\\c2ccccc2O)C(=O)N1", "32.7 µM (inactive)"],
  ["CCN(CC)C(=S)N/N=C/c1cc(OC)ccc1O", "7.28 µM (inactive)"],
  ["CC(=O)CC(=O)N1CCOC1=O", "> 10 µM (inactive)"],
  ["O=C(O)C1=CN(c2ccncc2)C(c2ccco2)=CC1c1ccccc1[N+](=O)[O-] (configuration not stated)", "10.6 µM (inactive)"],
  ["COc1ccc(C2=Nn3c(nnc(Cc4ccc(Cl)cc4)c3=O)SC2)cc1", "64 µM (inactive)"]
]}

* * *

Some compounds, each annotated with its measured GI50.
Test system: MDA-MB-435
Experiment: NCI tumour cell line growth inhibition, 48 h
The source made the active and inactive calls. No stated cut-off is given here; in the data, active = GI50 up to about 1.1 µM and inactive = higher. Non-standard residues stand in square brackets, D forms with d. Residues, ends and D or L forms follow the SMILES beside them. ξ: configuration not given here. *: point of attachment. ξF = NC(Cc1ccccc1)C(=O)O; Cbz = O=C(OCc1ccccc1)*; Aib = CC(C)(N)C(=O)O

{"columns": ["COMPOUND", "TARGET_OR_SYSTEM", "GI50"],
 "data": [
  ["CC1=CCC[C@H]2[C@](C)(CC3=CC(=O)C4SCCSC4C3=O)[C@@H](C)CC[C@]12C (stereo partly specified)", "MDA-MB-435", "8.09 µM (inactive)"],
  ["COc1ccc(C2=Nn3c(nnc(Cc4ccc(Cl)cc4)c3=O)SC2)cc1", "MDA-MB-435", "10.4 µM (inactive)"],
  ["CCOc1ccc(/N=C/c2ccnc3ccccc23)cc1", "MDA-MB-435", "42.7 µM (inactive)"],
  ["COC(=O)C(Cc1ccccc1)NC(=O)C(CCC(=O)OCc1ccccc1)NC(=O)OC(C)(C)C (stereo unspecified)", "MDA-MB-435", "> 100 µM (inactive)"],
  ["CC1=C(C)C(=O)OC(C(C)(O)C2(O)CCC3(O)C4CC(Cl)C5(O)C(O)C=CC(=O)C5(C)C4CCC32C)C1 (stereo unspecified)", "MDA-MB-435", "18.7 µM (inactive)"],
  ["CC(C)C(Nc1ncnc2nc[nH]c12)C(=O)O (stereo unspecified)", "MDA-MB-435", "> 100 µM (inactive)"],
  ["CN(CC(=O)O)c1ncc2c(n1)-c1ccccc1CC2", "MDA-MB-435", "> 100 µM (inactive)"],
  ["CCC1(O)C(=O)OCc2c1cc1n(c2=O)Cc2cc3ccc(C=O)cc3nc2-1 (stereo unspecified)", "MDA-MB-435", "7.18 µM (inactive)"],
  ["CSc1ccc(C=C2N=C(c3ccccc3)N(c3cc(C(=O)c4ccccc4)ccc3N3C(=O)/C(=C/c4ccc(SC)cc4)N=C3c3ccccc3)C2=O)cc1", "MDA-MB-435", "31.8 µM (inactive)"],
  ["CC(C)Nc1[nH]c(C(=O)c2ccccc2)c(N)c1C(=S)Nc1ccccc1", "MDA-MB-435", "30.8 µM (inactive)"],
  ["Cn1c2ccccc2c2c(=O)[nH]c(=O)[nH]c21", "MDA-MB-435", "> 100 µM (inactive)"],
  ["COc1ccccc1/C=C1\\CCC(CN2CCOCC2)C1=O (stereo unspecified)", "MDA-MB-435", "7.13 µM (inactive)"],
  ["CCN(CC)C(=S)SS(=O)(=O)c1ccc(Cl)cc1", "MDA-MB-435", "20.5 µM (inactive)"],
  ["O=S(=O)(/N=S(/Nc1ccccc1)C(Cl)Cl)c1ccccc1 (stereo unspecified)", "MDA-MB-435", "> 100 µM (inactive)"],
  ["Cn1nc2ccc([N+](=O)[O-])cc2[n+]1[O-]", "MDA-MB-435", "> 100 µM (inactive)"],
  ["COc1ccc(CCNC(=S)NC=C2C(=O)c3ccccc3C2=O)cc1OC", "MDA-MB-435", "> 100 µM (inactive)"],
  ["Clc1ccc2[nH]c(CC3CCCC3)nc2c1", "MDA-MB-435", "6.52 µM (inactive)"],
  ["C=CC(OC(C)=O)c1ccc(OC(C)=O)cc1 (stereo unspecified)", "MDA-MB-435", "3.45 µM (inactive)"],
  ["Clc1ccccc1-c1nc(-c2ccncc2)no1 [PIFEXOLE]", "MDA-MB-435", "48.6 µM (inactive)"],
  ["CCOC(=O)/C(C)=C\\[C@@]1(C)O[C@@H](C)[C@@](C)(OC(C)=O)[C@@H]1OC(C)=O", "MDA-MB-435", "41.7 µM (inactive)"],
  ["O=C1CC2SC(COCc3ccccc3)(CCN2Cc2ccccc2)C1 (stereo unspecified)", "MDA-MB-435", "51.6 µM (inactive)"],
  ["O=C1Oc2ccccc2C(=O)/C1=C/N1C(=O)/C(=C/c2ccc3c(c2)OCO3)SC1=S", "MDA-MB-435", "18.7 µM (inactive)"],
  ["Oc1ccc(Br)cc1/C=N/C1CCCCC1", "MDA-MB-435", "28.2 µM (inactive)"],
  ["Cc1ccc(NC(=O)/C(Cc2cc(=O)oc3cc(O)ccc23)=N\\NC(C)(C)C)cc1C", "MDA-MB-435", "> 100 µM (inactive)"],
  ["C=C(c1nc2ccc(Cl)cc2[nH]c1=O)C(O)c1ccc(C(O)C(=O)c2nc3ccc(Cl)cc3[nH]c2=O)cc1 (stereo unspecified)", "MDA-MB-435", "> 100 µM (inactive)"],
  ["Cc1ccc2c(c1)C(=O)C(C1OC(=O)c3ccccc31)C2 (stereo unspecified)", "MDA-MB-435", "> 100 µM (inactive)"],
  ["C[C@H](C1CC2(C)OC2(C)C(=O)O1)[C@H]1CC[C@H]2[C@@H]3[C@@H]4O[C@@H]4[C@@]4(O)CC=CC(=O)[C@]4(C)[C@H]3CC[C@]12C (stereo partly specified)", "MDA-MB-435", "> 50 µM (inactive)"],
  ["COc1cccc(C2SCC(=O)N2c2ccc(-c3ccc(-n4c(-c5ccccc5)nc5ccccc5c4=O)cc3)cc2)c1OC (stereo unspecified)", "MDA-MB-435", "53.5 µM (inactive)"],
  ["Cc1cccc(N2C(=O)C3c4[nH]c5ccccc5c4C4CCC(C(C)(C)C)CC4C3C2=O)c1 (stereo unspecified)", "MDA-MB-435", "15.2 µM (inactive)"],
  ["O=c1c2cc(Cl)ccc2n2nnc3ccc(NCCNCCO)c1c32", "MDA-MB-435", "1.12 µM (inactive)"],
  ["COc1cc(C/N=c2/nc(N(C)C)ss2)cc(OC)c1OC", "MDA-MB-435", "> 10 µM (inactive)"],
  ["N#CCCN(CCC#N)c1ccc(/C=N\\c2ccc(F)cc2)cc1", "MDA-MB-435", "17.3 µM (inactive)"],
  ["COC(CNC(=O)C(C)NC(=O)CCc1ccccc1)OC (stereo unspecified)", "MDA-MB-435", "> 100 µM (inactive)"],
  ["C[n+]1cccc2c(=O)c3ccccc3oc21", "MDA-MB-435", "> 100 µM (inactive)"],
  ["CC1(C)O[C@@H]2[C@@H]3OC(=O)C[C@@H]3[C@@H](COCc3ccccc3)[C@@H]2O1", "MDA-MB-435", "> 100 µM (inactive)"],
  ["COC12C=CC(CC1)C(C)(C)C2OS(C)(=O)=O (stereo unspecified)", "MDA-MB-435", "> 100 µM (inactive)"],
  ["CCOC(=O)CNC(=O)C(Cc1ccccc1)NC(=O)C(C)(C)NC(=O)OCc1ccccc1 (stereo unspecified) (Cbz-[Aib]-[ξF]-Gly-OEt)", "MDA-MB-435", "67.3 µM (inactive)"],
  ["CCOC(=O)/C=C(\\C(=O)OCC)n1ccc(=O)n(Cc2cn(COCCOC(C)=O)nn2)c1=O", "MDA-MB-435", "18.7 µM (inactive)"],
  ["CCCC(=O)OCC1OC(n2cc(F)c(=O)[nH]c2=O)CC1OC(=O)CCC (stereo unspecified)", "MDA-MB-435", "3.95 µM (inactive)"],
  ["CC(=O)CCC(=O)C(=[N+]=[N-])S(=O)(=O)c1ccccc1", "MDA-MB-435", "> 100 µM (inactive)"],
  ["COc1ccc(-c2nc(N)c(C#N)c3c2CCS(=O)(=O)c2ccc(C)cc2-3)cc1OC", "MDA-MB-435", "15.1 µM (inactive)"]
]}
